# Protocol details: Measurement of Log P values by HPLC on reversed phase columns (EEC directive 79/831 Annex V.A8)
# Format: physicochemical
# Condition details: method [a]: LC-UV, acidic range, 0.1% formic acid in water and acetonitrile as eluent
Documented chromatographic logP across a set of compounds
Readout name: chromatographic logP

COC(=O)c1c(Oc2cccc(C(F)(F)F)c2)cnc2ccccc12 [1-13]: 3.8
O=C(O)c1c(Oc2cccc(C(F)F)c2)cnc2ccccc12 [1-41]: 2.1
O=C(O)c1c(Oc2cccc(C(F)F)c2)nnc2ccccc12 [1-11]: 1.87
O=C(O)c1c(Oc2cccc(C(F)F)c2)nnc2c1CCCC2 [1-32]: 1.18
CCOC(=O)c1c(Oc2cccc(Cl)c2F)nnc2c1CCCC2 [1-26]: 3.76
C=Cc1cccc(Oc2cnc3ccccc3c2C(=O)O)c1 [1-50]: 2.41
CCOC(=O)c1c(Oc2cccc(C(F)(F)F)c2)nnc2c1CCCC2 [1-22]: 3.9
O=C(O)c1c(Oc2cccc(Br)c2F)cnc2ccccc12 [1-39]: 2.59
O=C(O)c1c(Oc2cccc(Cl)c2F)nnc2c1CCCC2 [1-29]: 1.46
O=C(NCCc1ccc2c(c1)OCCO2)c1c(Oc2cccc(C(F)(F)F)c2)nnc2ccccc12 [I-086]: 3.42
O=C(O)c1c(Oc2cccc(C(F)(F)F)c2)nnc2c1CCCC2 [1-31]: 1.6
O=C(O)c1c(Oc2cccc(C3CC3)c2F)nnc2ccccc12 [1-18]: 2.23
O=C(O)c1c(Oc2cccc(Br)c2F)nnc2c1CCCC2 [1-27]: 1.55
C#Cc1cccc(Oc2cnc3ccccc3c2C(=O)O)c1 [1-49]: 2.2
O=C(O)c1c(Oc2cccc(C3CC3)c2F)cnc2ccccc12 [1-51]: 2.71
CCOC(=O)c1c(Oc2cccc(Br)c2F)nnc2c1CCCC2 [1-21]: 3.85
CCOC(=O)c1c(Oc2cccc(C(F)F)c2)nnc2c1CCCC2 [1-23]: 3.37
CC(C)OC(=O)c1c(Oc2cccc(Cl)c2)nnc2ccccc12 [1-14]: 4.19
COC(=O)c1c(Oc2cccc(C(F)(F)F)c2)nnc2ccccc12 [1-02]: 3.62
O=C(O)c1c(Oc2cccc(Cl)c2)nnc2ccccc12 [1-03]: 2.07
O=C(O)c1c(Oc2cccc(C(F)(F)F)c2)cnc2ccoc12 [1-15]: 2.08
O=C(O)c1c(Oc2cccc(C(F)(F)F)c2)nnc2ccccc12 [1-01]: 2.27
COC(=O)c1c(Oc2cccc(C(F)F)c2)nnc2ccccc12 [1-09]: 3.06
O=C(O)c1c(Oc2cccc(C(F)(F)F)c2)cnc2ccccc12 [1-07]: 2.57
Cc1cccc(Oc2nnc3ccccc3c2C(=O)O)c1 [1-04]: 1.92

###

# Tested on: Colletotrichum lindemuthianum
# Protocol details: B-8. Colletotrichum lindemuthianum in vitro cell test
# Assay type: cell-based
# Condition details: 144 h, 20 ppm of active ingredient, 6 days incubation, liquid culture, absorbance, read-out: efficacy (inhibition of fungal growth)
# Procedure: B-8. Colletotrichum lindemuthianum In Vitro Cell Test [table] Fungicides were solubilized in DMSO and the solution used to prepare the required range of concentrations. The final concentration of DMSO used in the assay was ≤1%. […] Fungicides were evaluated for their ability to inhibit spores germination and mycelium growth in liquid culture assay. […] After 6 days incubation, fungi-toxicity of compounds was determined by spectrometric measurement of mycelium growth. […]
Readout name: inhibition at 20 ppm

Cc1cccc2c1OCC[C@@H]2NC(=O)c1c(Oc2cccc(C(F)(F)F)c2)nnc2ccccc12 (racemic): 90 to 100%
Cc1ccc(C(F)CNC(=O)c2c(Oc3cccc(C4CC4)c3F)nnc3c2CCCC3)c(C)c1 (centres unmarked): 90 to 100%
O=C(NCC(F)c1ccc(Cl)cc1Cl)c1c(Oc2cccc(Cl)c2)nnc2c1CCCC2 (centres unmarked): 90 to 100%
Cc1ccc(CCNC(=O)c2c(Oc3cccc(C(F)(F)F)c3)cnc3ccoc23)c(C)c1: 90 to 100%
Cc1ccc(C(F)(F)CNC(=O)c2c(Oc3cccc(Cl)c3F)cnc3nccnc23)c(C)c1: 90 to 100%
O=C(N[C@H]1CCCc2ccc(Cl)cc21)c1c(Oc2cccc(C(F)(F)F)c2)nnc2ccccc12: 90 to 100%
C[C@H](NC(=O)c1c(Oc2cccc(Cl)c2)nnc2ccccc12)c1cccc(C(F)(F)F)c1 (racemic): 80 to 89%
Cc1cc(Br)ccc1C(F)(F)CNC(=O)c1c(Oc2cccc(C(F)(F)F)c2)nnc2c1CCCC2: 90 to 100%
O=C(NCC(F)c1ccc(Cl)cc1Cl)c1c(Oc2cccc(C(F)F)c2)nnc2c1CCCC2 (centres unmarked): 90 to 100%
COc1cc([C@@H](F)CNC(=O)c2c(Oc3cccc(Cl)c3)nnc3ccccc23)ccc1Cl (racemic): 90 to 100%
C[C@H](NC(=O)c1c(Oc2cccc(C(F)(F)F)c2)nnc2ccccc12)c1cccc(C(F)(F)F)c1 (racemic): 70 to 79%
Cc1ccc(CCNC(=O)c2c(Oc3cccc(C(F)(F)F)c3)nnc3ccccc23)o1: 90 to 100%
C=C(OCC)c1ccc(C(F)(F)CNC(=O)c2c(Oc3cccc(C(F)(F)F)c3)nnc3ccccc23)c(Cl)c1: 80 to 89%
Cc1cc(C(F)F)ccc1[C@@H](F)CNC(=O)c1c(Oc2cccc(C(F)(F)F)c2)cnc2ccccc12 (racemic): 90 to 100%
Cc1ccc(C(F)(F)CNC(=O)c2c(Oc3cccc(Br)c3F)nnc3ccccc23)c(C)c1: 90 to 100%
Cc1ccc(CCNC(=O)c2c(Oc3cccc(C(F)(F)F)c3)nnc3cc(C)ccc23)c(C)c1: 90 to 100%
O=C(NCC(F)c1ccc(Cl)cc1Cl)c1c(Oc2cccc(C(F)(F)F)c2)nnc2c1COCC2 (centres unmarked): 90 to 100%
O=C(NC[C@H](F)c1ccc(C2CC2)cc1Cl)c1c(Oc2cccc(Cl)c2)nnc2ccccc12 (racemic): 90 to 100%
Cc1ccc(C(F)(F)CNC(=O)c2c(Oc3cccc(C(F)(F)F)c3)nnc3c2CCC3)c(Cl)c1: 90 to 100%
Cc1ccc(C(F)(F)CNC(=O)c2c(Oc3cccc(C#N)c3)nnc3ccccc23)c(C)c1: 90 to 100%
Cc1cccc(Oc2cnc3ccccc3c2C(=O)NCC(F)(F)c2ccc(C)cc2C)c1: 90 to 100%
Cc1ccc(C(F)(F)CNC(=O)c2c(Oc3cccc(Cl)c3F)nnc3c2CCC3)c(C)c1: 90 to 100%
O=C(NCCc1cccs1)c1c(Oc2cccc(C(F)(F)F)c2)nnc2ccccc12: 80 to 89%
C[C@H](NC(=O)c1c(Oc2cccc(C(F)(F)F)c2)nnc2ccccc12)c1ccc(Cl)s1 (racemic): 90 to 100%
Cc1cc(Cl)ccc1C(F)(F)CNC(=O)c1c(Oc2cccc(C(F)(F)F)c2)nnc2c1CCC2: 90 to 100%
O=C(NCC(F)(F)c1ccc(Br)cc1Cl)c1c(Oc2cccc(C(F)(F)F)c2)cnc2c1OCCO2: 90 to 100%
Cc1ccc(C(F)(F)CNC(=O)c2c(Oc3cccc(C(F)(F)F)c3)nnc3cc(C4CC4)ccc23)c(C)c1: 90 to 100%
O=C(NC[C@H](F)c1ccc(Cl)c(Cl)c1)c1c(Oc2cccc(C(F)(F)F)c2)nnc2ccccc12 (racemic): 80 to 89%
Cc1ccc(C(F)(F)CNC(=O)c2c(Oc3cccc(C(F)(F)F)c3)cnc3ccccc23)c(C)c1: 90 to 100%
Cc1ccc([C@@H](F)CNC(=O)c2c(Oc3cccc(Cl)c3)nnc3ccccc23)c(Cl)c1 (racemic): 90 to 100%
Cc1cc(Br)ccc1[C@@H](F)CNC(=O)c1c(Oc2cccc(Cl)c2)nnc2ccccc12 (racemic): 90 to 100%
Cc1ccc(C(F)(F)CNC(=O)c2c(Oc3cccc(C(F)(F)F)c3)nnc3c2CCC3(C)C)c(C)c1: 70 to 79%

###

# Protocol details: Measurement of Log P values by HPLC on reversed phase columns (EEC directive 79/831 Annex V.A8)
# Format: physicochemical
# Condition details: reversed phase HPLC column, method [a]: LC-UV, acidic range, 0.1% formic acid in water and acetonitrile as eluent
Decision: chromatographic logP >= 4 yields Condition met, all other cases yield Condition not met.

Cc1ccc(CCNC(=O)c2c(Oc3cccc(C(F)(F)F)c3)nnc3c2OCCO3)c(C)c1 [I-104]: Condition not met
Cc1ccc(C(F)(F)CNC(=O)c2c(Oc3cccc(C(F)(F)F)c3)nnc3c2COCC3)c(Cl)c1 [I-124]: Condition not met
Cc1ccc(C(F)(F)CNC(=O)c2c(Oc3cccc(C4CC4)c3F)nnc3c2N[C@@H](O)CC3)c(C)c1 (racemic) [I-116]: Condition not met
Cc1ccc2c(C(=O)NC[C@H](F)c3ccc(Cl)cc3Cl)c(Oc3cccc(C(F)(F)F)c3)nnc2c1 (racemic) [I-047]: Condition met
Cc1ccc(C(F)(F)CNC(=O)c2c(Oc3cccc(C(F)(F)F)c3)nnc3cc(C4CC4)ccc23)c(C)c1 [I-242]: Condition met
CCOC(=O)c1c(Oc2cccc(C(F)(F)F)c2)nnc2cc(C3CC3)ccc12 [1-53]: Condition met
